biological target: Potassium voltage-gated channel subfamily A member 5 (Homo sapiens); assay: Inhibition of human Kv1.5 channel expressed in Xenopus oocytes at 3 uM by EP voltage clamp technique; type: cell-based; settings: Oocyte
Sequence (P22460 whole entry): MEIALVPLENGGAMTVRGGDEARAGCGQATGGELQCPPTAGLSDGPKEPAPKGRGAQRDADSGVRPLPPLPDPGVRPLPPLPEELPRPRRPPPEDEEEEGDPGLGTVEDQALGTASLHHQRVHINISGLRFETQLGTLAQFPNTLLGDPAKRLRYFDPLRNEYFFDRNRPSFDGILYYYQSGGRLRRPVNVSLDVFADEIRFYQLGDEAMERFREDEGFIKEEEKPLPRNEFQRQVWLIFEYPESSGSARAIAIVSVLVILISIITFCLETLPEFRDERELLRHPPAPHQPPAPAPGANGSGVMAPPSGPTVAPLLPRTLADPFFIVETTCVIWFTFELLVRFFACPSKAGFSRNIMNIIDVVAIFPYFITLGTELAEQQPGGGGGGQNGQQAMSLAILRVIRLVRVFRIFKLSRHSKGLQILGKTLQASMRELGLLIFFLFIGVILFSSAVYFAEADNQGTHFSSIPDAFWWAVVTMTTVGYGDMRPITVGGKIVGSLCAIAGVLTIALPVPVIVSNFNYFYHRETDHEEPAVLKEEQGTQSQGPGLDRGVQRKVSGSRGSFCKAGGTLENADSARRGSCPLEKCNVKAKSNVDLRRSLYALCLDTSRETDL
QUANTITY NAME: inhibition

Qu. # query: inhibition of entry CC1=C(C(=O)N2CCN(c3ccc(F)cc3)CC2)C(c2cc(Cl)cc(Cl)c2)n2nccc2N1 (centres undefined)
Ans. 62%

Qu. Try CC1=C(C(=O)N2CCN(c3ccc(F)cc3)CC2)C(c2cc3ccccc3o2)n2nccc2N1 (centres undefined) next.
Ans. 33%

Qu. Another molecule to check: CC1=C(C(=O)N2CCN(c3ccc(F)cc3)CC2)C(c2cc(Cl)ccc2Cl)n2nccc2N1 (centres undefined)
Ans. 41%

Qu. What would you report for CC1=C(C(=O)N2CCCCC2)C(c2ccc(Cl)c(Cl)c2)n2nccc2N1 (centres undefined) ?
Ans. 77%

Qu. Can you check CC1=C(C(=O)N2CCN(c3ccc(F)cc3)CC2)C(c2ccc3c(c2)OCO3)n2nccc2N1 (centres undefined) next?
Ans. 26%

Qu. Moving on to CC1=C(C(=O)N2CCN(c3ccc(F)cc3)CC2)C(c2cccs2)n2nccc2N1 (centres undefined)
Ans. 7%

Qu. Same read-out for CC1=C(C(=O)N2CCN(c3ccc(F)cc3)CC2)C(c2ccccc2)n2nccc2N1 (centres undefined) ?
Ans. 24%

Qu. Input CC1=C(C(=O)N2CCN(c3ccc(F)cc3)CC2)C(c2cccc(Cl)c2)n2nccc2N1 (centres undefined)
Ans. 68%

Qu. Please do the same for CC1=C(C(=O)N2CCN(c3ccc(F)cc3)CC2)C(c2sc3ccccc3c2C)n2nccc2N1 (centres undefined) as well.
Ans. 56%

Qu. Please do the same for CC1=C(C(=O)N2CCN(c3ccc(F)cc3)CC2)C(c2cc(C)cc(C)c2)n2nccc2N1 (centres undefined) as well.
Ans. 58%

Qu. Now give it for CC1=C(C(=O)N2CCN(c3ccc(F)cc3)CC2)C(c2cccnc2)n2nccc2N1 (centres undefined) too.
Ans. 3%

Qu. CC1=C(C(=O)N2CCN(c3ccc(F)cc3)CC2)C(c2cccc(Cl)c2Cl)n2nccc2N1 (centres undefined) , same question.
Ans. 72%

Qu. Now give it for CCCCCNC(=O)C1=C(C)Nc2ccnn2C1c1ccc(Cl)c(Cl)c1 (centres undefined) too.
Ans. 48%

Qu. Next up: CCCCNC(=O)C1=C(C)Nc2ccnn2C1c1ccc(Cl)c(Cl)c1 (centres undefined)
Ans. 56%

Qu. CC1=C(C(=O)N2CCN(c3ccc(F)cc3)CC2)C(c2ccc(C)c(C)c2)n2nccc2N1 (centres undefined) ?
Ans. 34%

Qu. Entry to check: CC1=C(C(=O)N2CCN(c3ccc(F)cc3)CC2)C(c2ccc(Cl)s2)n2nccc2N1 (centres undefined)
Ans. 51%

Qu. What about CC1=C(C(=O)N2CCN(c3ccc(F)cc3)CC2)C(c2ccco2)n2nccc2N1 (centres undefined) ?
Ans. 1%

Qu. Another molecule to look at: CCCCCN(CCCCC)C(=O)C1=C(C)Nc2ccnn2C1c1ccc(Cl)c(Cl)c1 (centres undefined)
Ans. 69%

Qu. Another molecule to check: COc1cccc(C2C(C(=O)N3CCN(c4ccc(F)cc4)CC3)=C(C)Nc3ccnn32)c1OC (centres undefined)
Ans. 7%
